target: Potassium voltage-gated channel subfamily KQT member 2 (Rattus norvegicus); experiment: KCNQ2 channel blockers in CHO-K1 cells – cell-based, FluxOR thallium flux, B-score, primary screen (AID 2156); conditions: 20 min, at 10 µM
Out of some 310,000 compounds screened, about 3,400 (1.1%) were called active.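 The calls were made as follows: active = fluorescence ratio B-score at most minus 3 library SDs, with starting brightness B-score within 2 library SDs (cut at about -5.5 in these data); inactive = the rest, inconclusive results apart.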 Many of the other results were omitted from the sample, so actives are more common in it than they were.
API: response.call in Yes (active), No (inactive)

Some solved cases for reference:
[[record]]
molecule = "Cc1nc2ccccn2c1P(=S)(N1CCCCC1)N1CCCCC1"
class = "Yes"

[[record]]
molecule = "CCCCCn1c(=O)c(C(=O)NCc2ccccc2)c(O)c2ccccc21"
class = "No"

[[record]]
molecule = "CC(c1ccccc1)(c1ccccc1)c1ccncc1"
class = "Yes"

[[record]]
molecule = "COc1ccccc1OC(=O)c1ccc(C)c(S(=O)(=O)N2CCOCC2)c1"
class = "No"

[[record]]
molecule = "COc1ccc(CN2CCN(c3ccccc3F)CC2)c(OC)c1"
class = "No"

[[record]]
molecule = "CC(C)(C)c1ccc(CN2C(=O)CN=C(c3ccccc3)c3ccccc32)cc1"
class = "Yes"

[[record]]
molecule = "CC[C@H]1CC2CN3CCc4c([nH]c5ccccc45)C(C(=O)OC)(C2)C13 (stereo partly specified)"
class = "No"

[[record]]
molecule = "O=C(c1ccccc1[N+](=O)[O-])N1CCC2(CC1)OCCO2"
class = "No"


Outcome logged for O=c1[nH]c(O)c(C=Nc2cc(F)cc(F)c2)c(=O)[nH]1 in this assay:
No

Entry to check: O=C(NC(c1ccc(Cl)cc1)P(=O)(Oc1ccccc1)Oc1ccccc1)OCc1ccccc1 (stereo unspecified)
Yes

Next record, please: O=C(c1cc2nc(-c3ccccc3)cc(-c3ccccc3)n2n1)N1CCC2(CC1)OCCO2
No

----------
target: Potassium voltage-gated channel subfamily KQT member 2 (Rattus norvegicus) (UniProt O88943); test: KCNQ2 channel blockers in CHO-K1 cells – cell-based, FluxOR thallium flux, B-score, primary screen (AID 2156); details: 20 min, at 10 µM
Sequence (O88943 whole entry, looked up): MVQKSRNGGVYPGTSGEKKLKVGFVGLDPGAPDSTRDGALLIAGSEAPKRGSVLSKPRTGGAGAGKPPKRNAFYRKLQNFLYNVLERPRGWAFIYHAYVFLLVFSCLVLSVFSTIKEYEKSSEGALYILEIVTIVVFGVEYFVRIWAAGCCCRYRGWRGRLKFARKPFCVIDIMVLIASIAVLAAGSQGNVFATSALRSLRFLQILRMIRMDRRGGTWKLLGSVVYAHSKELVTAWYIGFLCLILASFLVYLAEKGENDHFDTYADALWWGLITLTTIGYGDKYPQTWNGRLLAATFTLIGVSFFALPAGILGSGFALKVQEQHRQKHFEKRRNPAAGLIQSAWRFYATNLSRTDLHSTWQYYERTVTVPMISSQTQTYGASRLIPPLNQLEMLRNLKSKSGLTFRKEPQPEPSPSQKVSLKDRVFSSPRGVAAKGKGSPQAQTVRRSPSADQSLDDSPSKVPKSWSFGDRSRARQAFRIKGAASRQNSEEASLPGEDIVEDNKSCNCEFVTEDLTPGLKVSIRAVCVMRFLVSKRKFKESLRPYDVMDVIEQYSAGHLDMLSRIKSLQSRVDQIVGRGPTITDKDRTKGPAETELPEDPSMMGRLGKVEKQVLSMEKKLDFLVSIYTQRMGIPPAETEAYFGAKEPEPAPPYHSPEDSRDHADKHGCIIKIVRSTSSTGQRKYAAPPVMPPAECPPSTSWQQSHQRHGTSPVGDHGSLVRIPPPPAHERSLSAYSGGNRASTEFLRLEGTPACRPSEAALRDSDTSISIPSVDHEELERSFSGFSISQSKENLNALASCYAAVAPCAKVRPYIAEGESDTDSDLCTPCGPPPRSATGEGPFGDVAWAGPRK
About 3,400 (1.1%) of roughly 310,000 compounds were called active.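 How the source made its calls: active means fluorescence ratio B-score at most minus 3 library SDs, with starting brightness B-score within 2 library SDs (cut at about -5.5 in these data); inactive means the rest, inconclusive results apart.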 This is one part of a sample in which actives are shown more often than they occur.
Respond only with the outcome that fits, drawn from active, inactive

[[record]]
compound = "Cc1ccc(Cn2c(C)c3cnn(CC(=O)N4CCC5(CC4)OCCO5)c(=O)c3c2C)cc1"
class = "inactive"


Look up the recorded call for CN(C)CC1Oc2ccccc2OC1(O)c1ccccc1 (stereo not drawn) in this test.
active

Ok, now COc1ccccc1CN1CCN(C(=O)Cc2ccccc2)CC1
inactive

These measurements were taken from PubChem BioAssay AID2156.
